- ASSAY SUMMARY: Pharmacokinetics and bioavailability of Compound I-2 in rats (plasma Compound IV-1 by LC-MS/MS)
- Type: in vivo, rat
- DETAILS: male, Sprague-Dawley, rat, plasma, iv, 8 μmol/kg, SD rats, intravenous injection 8 μmol/kg, 0.08 h, mean of 3; read-out: Concentration of Compound IV-1 in plasma, Mean

{"columns": ["COMPOUND", "concentration at 0.08 h, ng/mL"],
 "data": [
  ["COC(=O)[C@H](c1ccccc1Cl)N1CCC2SC(=O)C=C2C1 (stereo partly shown)", 671]
]}

====

- ASSAY SUMMARY: Pharmacokinetics and bioavailability of Compound I-2 in rats (plasma Compound IV-1 by LC-MS/MS)
- Type: in vivo, rat
- DETAILS: male, Sprague-Dawley, rat, plasma, iv, 8 umol/kg, SD rats, intravenous injection 8 μmol/kg (2.7 mg/kg), mean of 3; read-out: Cmax of Compound IV-1, Mean
ASSAY METRIC: Cmax (ng/mL)

{"columns": ["COMPOUND", "ASSAY RESULT"],
 "data": [
  ["COC(=O)[C@H](c1ccccc1Cl)N1CCC2SC(=O)C=C2C1 (stereo partly shown) [IV-1]", 671]
]}

====

- ASSAY SUMMARY: Pharmacokinetics and bioavailability of Compound I-2 in rats (plasma Compound IV-1 by LC-MS/MS)
- Assay type: in vivo, rat
- DETAILS: male, Sprague-Dawley, rat, plasma, iv, 8 μmol/kg, SD rats, intravenous injection 8 μmol/kg, 6 h, individual animal; read-out: Concentration of Compound IV-1 in plasma, single animals
ASSAY METRIC: concentration at 6 h (ng/mL)

{"columns": ["MOLECULE", "READOUT UNIT", "ASSAY RESULT"],
 "data": [
  ["COC(=O)[C@H](c1ccccc1Cl)N1CCC2SC(=O)C=C2C1 (stereo partly shown)", "ng/mL", 1.29]
]}

====

- ASSAY SUMMARY: Pharmacokinetics and bioavailability of Compound I-2 in rats (plasma Compound IV-1 by LC-MS/MS)
- Type: in vivo, rat
- DETAILS: male, Sprague-Dawley, rat, plasma, iv, 8 μmol/kg, SD rats, intravenous injection 8 μmol/kg, 0.5 h, mean of 3; read-out: Concentration of Compound IV-1 in plasma, Mean

{"columns": ["MOLECULE", "concentration at 0.5 h, µg/mL"],
 "data": [
  ["COC(=O)[C@H](c1ccccc1Cl)N1CCC2SC(=O)C=C2C1 (stereo partly shown)", 0.115]
]}

====

- ASSAY SUMMARY: Pharmacokinetics and bioavailability of Compound I-2 in rats (plasma Compound IV-1 by LC-MS/MS)
- Assay type: in vivo, rat
- DETAILS: male, SD, rat, plasma, iv, 2.7 mg/kg, intravenous injection 8 μmol/kg (2.7 mg/kg), individual animal, read-out: Cmax of Compound IV-1, single animals
ASSAY METRIC: Cmax

{"columns": ["MOLECULE", "ASSAY METRIC", "ASSAY RESULT"],
 "data": [
  ["COC(=O)[C@H](c1ccccc1Cl)N1CCC2SC(=O)C=C2C1 (stereo partly shown)", "Cmax", "696 ng/mL"]
]}

====

- ASSAY SUMMARY: Pharmacokinetics and bioavailability of Compound I-2 in rats (plasma Compound IV-1 by LC-MS/MS)
- Format: in vivo, rat
- DETAILS: male, Sprague-Dawley, rat, plasma, iv, 8 μmol/kg, SD rats, intravenous injection 8 μmol/kg, 4 h, individual animal; read-out: Concentration of Compound IV-1 in plasma, single animals
ASSAY METRIC: concentration at 4 h (ng/mL)

{"columns": ["COMPOUND", "READOUT UNIT", "ASSAY RESULT"],
 "data": [
  ["COC(=O)[C@H](c1ccccc1Cl)N1CCC2SC(=O)C=C2C1 (stereo partly shown)", "ng/mL", 3.94]
]}

====

ASSAY METRIC: melting point

{"columns": ["MOLECULAR STRING", "ASSAY RESULT"],
 "data": [
  ["COC(=O)[C@H](c1ccccc1Cl)N1CCc2sc(OC(=O)/C=C/c3ccccc3)cc2C1", "122 to 124 °C"],
  ["COC(=O)[C@H](c1ccccc1Cl)N1CCc2sc(OC(=O)c3ccccc3)cc2C1", "84 to 86 °C"],
  ["COC(=O)[C@H](c1ccccc1Cl)N1CCc2sc(OC(=O)COc3ccccc3)cc2C1", "104 to 106 °C"],
  ["CCOC(=O)Oc1cc2c(s1)CCN([C@H](C(=O)OC)c1ccccc1Cl)C2", "42 to 44 °C"],
  ["COC(=O)[C@H](c1ccccc1Cl)N1CCc2sc(OC(=O)c3ccc([N+](=O)[O-])cc3)cc2C1", "100 to 102 °C"],
  ["COC(=O)[C@H](c1ccccc1Cl)N1CCc2sc(OC(=O)c3cccnc3)cc2C1", "92 to 94 °C"],
  ["COC(=O)[C@H](c1ccccc1Cl)N1CCc2sc(OC(=O)N(C)C)cc2C1", "96 to 98 °C"],
  ["CCC(C)(C)C(=O)Oc1cc2c(s1)CCN([C@H](C(=O)OC)c1ccccc1Cl)C2", "98 to 100 °C"]
]}

====

- ASSAY SUMMARY: Pharmacokinetics and bioavailability of Compound I-2 in rats (plasma Compound IV-1 by LC-MS/MS)
- Type: in vivo, rat
- DETAILS: male, Sprague-Dawley, rat, plasma, iv, 8 umol/kg, SD rats, intravenous injection 8 μmol/kg (2.7 mg/kg), mean of 3; read-out: t1/2 of Compound IV-1, Mean (converted)
ASSAY METRIC: half-life (h)

{"columns": ["COMPOUND", "ASSAY RESULT"],
 "data": [
  ["COC(=O)[C@H](c1ccccc1Cl)N1CCC2SC(=O)C=C2C1 (stereo partly shown)", 1.06]
]}

====

- ASSAY SUMMARY: Pharmacokinetics and bioavailability of Compound I-2 in rats (plasma Compound IV-1 by LC-MS/MS)
- Format: in vivo, rat
- DETAILS: male, Sprague-Dawley, rat, plasma, iv, 8 μmol/kg, SD rats, intravenous injection 8 μmol/kg, 0.08 h, individual animal; read-out: Concentration of Compound IV-1 in plasma, single animals
- Excerpt: The rats were fasted overnight, but allowed free access to water.

{"columns": ["COMPOUND", "concentration at 0.08 h [ng/mL]"],
 "data": [
  ["COC(=O)[C@H](c1ccccc1Cl)N1CCC2SC(=O)C=C2C1 (stereo partly shown)", 696]
]}

====

- ASSAY SUMMARY: Pharmacokinetics and bioavailability of Compound I-2 in rats (plasma Compound IV-1 by LC-MS/MS)
- Type: in vivo, rat
- DETAILS: male, Sprague-Dawley, rat, plasma, iv, 8 μmol/kg, SD rats, intravenous injection 8 μmol/kg, 1 h, mean of 3; read-out: Concentration of Compound IV-1 in plasma, Mean
ASSAY METRIC: concentration at 1 h (ng/mL)

{"columns": ["MOLECULE", "ASSAY METRIC", "ASSAY RESULT"],
 "data": [
  ["COC(=O)[C@H](c1ccccc1Cl)N1CCC2SC(=O)C=C2C1 (stereo partly shown)", "concentration at 1 h", 45.9]
]}

====

- ASSAY SUMMARY: Pharmacokinetics and bioavailability of Compound I-2 in rats (plasma Compound IV-1 by LC-MS/MS)
- Type: in vivo, rat
- DETAILS: male, Sprague-Dawley, rat, plasma, iv, 8 μmol/kg, SD rats, intravenous injection 8 μmol/kg, 0.5 h, individual animal; read-out: Concentration of Compound IV-1 in plasma, single animals
- Excerpt: The rats were fasted overnight, but allowed free access to water.

{"columns": ["MOLECULE", "concentration at 0.5 h (ng/mL)"],
 "data": [
  ["COC(=O)[C@H](c1ccccc1Cl)N1CCC2SC(=O)C=C2C1 (stereo partly shown)", 108]
]}

====

- ASSAY SUMMARY: Pharmacokinetics and bioavailability of Compound I-2 in rats (plasma Compound IV-1 by LC-MS/MS)
- Type: in vivo, rat
- DETAILS: male, Sprague-Dawley, rat, plasma, 8 umol/kg; SD rats, intravenous injection 8 μmol/kg (2.7 mg/kg), mean of 3; read-out: Tmax of Compound IV-1, Mean

{"columns": ["COMPOUND", "Tmax"],
 "data": [
  ["COC(=O)[C@H](c1ccccc1Cl)N1CCC2SC(=O)C=C2C1 (stereo partly shown)", "4.98 min"]
]}

====

- ASSAY SUMMARY: Pharmacokinetics and bioavailability of Compound I-2 in rats (plasma Compound IV-1 by LC-MS/MS)
- Format: in vivo, rat
- DETAILS: male, Sprague-Dawley, rat, plasma, iv, 8 μmol/kg, SD rats, intravenous injection 8 μmol/kg, 2 h, mean of 3; read-out: Concentration of Compound IV-1 in plasma, Mean

{"columns": ["MOLECULE", "READOUT UNIT", "concentration at 2 h"],
 "data": [
  ["COC(=O)[C@H](c1ccccc1Cl)N1CCC2SC(=O)C=C2C1 (stereo partly shown) [IV-1]", "ng/mL", 9.9]
]}
